Provenance of the data: paper PMC8151276

Entries and their NanoBRET Fold Response values follow.
Target: P2RY13 (Homo sapiens, UniProt Q9BPV8)
Construct: purchased Promega (in-house HiBiT-GPCR construct library, NanoBRET)
Sequence (Q9BPV8 1-354): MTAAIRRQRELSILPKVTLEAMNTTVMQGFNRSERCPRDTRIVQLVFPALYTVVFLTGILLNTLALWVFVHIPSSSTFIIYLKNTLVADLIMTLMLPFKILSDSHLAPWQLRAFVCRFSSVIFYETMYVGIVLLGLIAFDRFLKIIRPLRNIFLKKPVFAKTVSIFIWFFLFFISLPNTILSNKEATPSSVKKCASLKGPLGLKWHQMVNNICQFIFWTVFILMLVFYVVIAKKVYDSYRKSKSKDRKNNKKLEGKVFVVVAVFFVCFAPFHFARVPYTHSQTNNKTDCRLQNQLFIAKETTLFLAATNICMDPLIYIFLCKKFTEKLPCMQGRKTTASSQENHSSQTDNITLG
Assay: NanoBRET screen HiBiT-P2RY13 in HEK293
Format: binding
Conditions: P2RY13; tracer 0.1μM
result type: NanoBRET Fold Response

>>> result("O=C(CCc1ccc2n1[B-](F)(F)[N+]1=C(c3ccc[nH]3)C=CC1=C2)NCc1ccc(C(=O)NCCOCCC(=O)N[C@@H]2CC[C@@]3(O)[C@H]4Cc5ccc(O)c6c5[C@@]3(CCN4CC3CC3)[C@H]2O6)cc1 [Naltrexone-3-NB590]")
0.62
>>> result("CCCn1c(=O)c2[nH]c(-c3ccc(OCC(=O)NCCNC(=O)CCOCCNC(=O)c4ccc(CNC(=O)CCc5ccc6n5[B-](F)(F)[N+]5=C(c7ccc[nH]7)C=CC5=C6)cc4)cc3)nc2n(CCC)c1=O")
1.00
>>> result("O=C(CCOCCOCCOCCOCCNC(=O)CCc1ccc2n1[B-](F)(F)[N+]1=C(c3ccc[nH]3)C=CC1=C2)NCCCN1CCN(C2=Nc3ccccc3Oc3ccc(Cl)cc32)CC1")
0.92
>>> result("Cc1nc2n(c(=O)c1CCN1CCC(c3noc4cc(F)ccc34)CC1)CCCC2OC(=O)NCCOCCOCCOCCOCCNC(=O)CCc1ccc2n1[B-](F)(F)[N+]1=C(c3ccc[nH]3)C=CC1=C2 (centres unmarked)")
1.03
>>> result("N#CN=C(NCCCOc1cccc(CN2CCCCC2)c1)NCCNC(=O)CCOCCOCCOCCOCCNC(=O)CCc1ccc2n1[B-](F)(F)[N+]1=C(c3ccc[nH]3)C=CC1=C2")
0.97

###

biological target: P2RY11 (Homo sapiens); construct: purchased Promega (in-house HiBiT-GPCR construct library, NanoBRET); assay: NanoBRET screen HiBiT-P2RY11 in HEK293; assay type: binding; settings: P2RY11; tracer 1μM
Sequence (Q96G91 whole entry, one chain of several): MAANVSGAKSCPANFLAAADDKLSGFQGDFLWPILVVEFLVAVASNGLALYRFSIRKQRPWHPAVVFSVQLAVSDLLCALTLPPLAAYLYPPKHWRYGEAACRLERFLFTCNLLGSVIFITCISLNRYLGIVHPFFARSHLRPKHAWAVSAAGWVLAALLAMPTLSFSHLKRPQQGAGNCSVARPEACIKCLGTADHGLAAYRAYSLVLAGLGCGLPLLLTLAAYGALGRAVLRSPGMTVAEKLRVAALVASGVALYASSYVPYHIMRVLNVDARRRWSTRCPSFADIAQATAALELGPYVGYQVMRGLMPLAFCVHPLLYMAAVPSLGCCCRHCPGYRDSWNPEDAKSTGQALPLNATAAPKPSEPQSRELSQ
result type: NanoBRET Fold Response

>>> result("Cc1nc2n(c(=O)c1CCN1CCC(c3noc4cc(F)ccc34)CC1)CCCC2OC(=O)NCCOCCOCCOCCOCCNC(=O)CCc1ccc2n1[B-](F)(F)[N+]1=C(c3ccc[nH]3)C=CC1=C2 (centres unmarked)")
0.88
>>> result("CC(C)N(CC[C@H](c1ccccc1)c1cc(CCNC(=O)CCOCCOCCOCCOCCNC(=O)CCc2ccc3n2[B-](F)(F)[N+]2=C(c4ccc[nH]4)C=CC2=C3)ccc1O)C(C)C")
0.83
>>> result("Cc1cc2c(s1)Nc1ccccc1N=C2N1CCN(CCCNC(=O)CCOCCOCCOCCOCCNC(=O)CCc2ccc3n2[B-](F)(F)[N+]2=C(c4ccc[nH]4)C=CC2=C3)CC1")
0.89
>>> result("O=C(CCc1ccc2n1[B-](F)(F)[N+]1=C(c3ccc[nH]3)C=CC1=C2)NCCOCCOCCNC(=O)OCCOCCN1CCN(C2=Nc3ccccc3Sc3ccccc32)CC1")
0.91
>>> result("CCCn1c(=O)c2[nH]c(-c3ccc(OCC(=O)NCCNC(=O)CCOCCNC(=O)c4ccc(CNC(=O)CCc5ccc6n5[B-](F)(F)[N+]5=C(c7ccc[nH]7)C=CC5=C6)cc4)cc3)nc2n(CCC)c1=O")
1.25
>>> result("COc1ccccc1N1CCN(CCCCN2C(=O)c3ccc(CNC(=O)CCOCCNC(=O)c4ccc(CNC(=O)CCc5ccc6n5[B-](F)(F)[N+]5=C(c7ccc[nH]7)C=CC5=C6)cc4)cc3C2=O)CC1")
0.96
>>> result("CC(C)N(CC[C@H](c1ccccc1)c1cc(CCNC(=O)c2ccc(CNC(=O)CCc3ccc4n3[B-](F)(F)[N+]3=C(c5ccc[nH]5)C=CC3=C4)cc2)ccc1O)C(C)C")
0.96
>>> result("N#CN=C(NCCCOc1cccc(CN2CCCCC2)c1)NCCNC(=O)CCOCCOCCOCCOCCNC(=O)CCc1ccc2n1[B-](F)(F)[N+]1=C(c3ccc[nH]3)C=CC1=C2")
1.03
>>> result("COc1ccccc1N1CCN(CCCCN2C(=O)c3ccc(CNC(=O)CCOCCOCCOCCOCCNC(=O)CCc4ccc5n4[B-](F)(F)[N+]4=C(c6ccc[nH]6)C=CC4=C5)cc3C2=O)CC1")
0.99
>>> result("O=C(CCOCCOCCOCCOCCNC(=O)CCc1ccc2n1[B-](F)(F)[N+]1=C(c3ccc[nH]3)C=CC1=C2)NCCCN1CCN(C2=Nc3ccccc3Oc3ccc(Cl)cc32)CC1")
0.94
>>> result("O=C(CCc1ccc2n1[B-](F)(F)[N+]1=C(c3ccc[nH]3)C=CC1=C2)NCc1ccc(C(=O)NCCOCCC(=O)N[C@@H]2CC[C@@]3(O)[C@H]4Cc5ccc(O)c6c5[C@@]3(CCN4CC3CC3)[C@H]2O6)cc1 [Naltrexone-3-NB590]")
0.71

###

Examples of molecules with documented NanoBRET Fold Response follow.
target: PTGDR (Homo sapiens, UniProt Q13258); construct: purchased Promega (in-house HiBiT-GPCR construct library, NanoBRET); assay: NanoBRET screen HiBiT-PTGDR in HEK293; format: binding; conditions: PTGDR; tracer 0.1μM
Sequence (Q13258 whole entry): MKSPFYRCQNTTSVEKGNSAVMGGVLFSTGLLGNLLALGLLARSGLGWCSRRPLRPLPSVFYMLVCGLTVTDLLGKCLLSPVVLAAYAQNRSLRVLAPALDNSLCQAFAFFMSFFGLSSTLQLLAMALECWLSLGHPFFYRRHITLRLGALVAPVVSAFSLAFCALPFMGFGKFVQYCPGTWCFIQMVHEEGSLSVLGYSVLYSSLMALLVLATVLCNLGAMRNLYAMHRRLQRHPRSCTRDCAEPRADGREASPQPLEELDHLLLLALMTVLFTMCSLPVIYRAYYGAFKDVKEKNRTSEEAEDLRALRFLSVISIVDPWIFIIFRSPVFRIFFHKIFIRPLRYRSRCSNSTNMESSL
result type: NanoBRET Fold Response

>>> result("COc1ccccc1N1CCN(CCCCN2C(=O)c3ccc(CNC(=O)CCOCCNC(=O)c4ccc(CNC(=O)CCc5ccc6n5[B-](F)(F)[N+]5=C(c7ccc[nH]7)C=CC5=C6)cc4)cc3C2=O)CC1")
0.96
>>> result("COc1ccccc1N1CCN(CCCCN2C(=O)c3ccc(CNC(=O)CCOCCOCCOCCOCCNC(=O)CCc4ccc5n4[B-](F)(F)[N+]4=C(c6ccc[nH]6)C=CC4=C5)cc3C2=O)CC1")
0.97
>>> result("O=C(CCc1ccc2n1[B-](F)(F)[N+]1=C(c3ccc[nH]3)C=CC1=C2)NCCOCCOCCNC(=O)OCCOCCN1CCN(C2=Nc3ccccc3Sc3ccccc32)CC1")
0.99

###

molecular target: ADORA2B (Homo sapiens); construct: purchased Promega (in-house HiBiT-GPCR construct library, NanoBRET); test: NanoBRET screen HiBiT-ADORA2B in HEK293; format: binding; details: ADORA2B; tracer 1μM
Sequence (P29275 whole entry): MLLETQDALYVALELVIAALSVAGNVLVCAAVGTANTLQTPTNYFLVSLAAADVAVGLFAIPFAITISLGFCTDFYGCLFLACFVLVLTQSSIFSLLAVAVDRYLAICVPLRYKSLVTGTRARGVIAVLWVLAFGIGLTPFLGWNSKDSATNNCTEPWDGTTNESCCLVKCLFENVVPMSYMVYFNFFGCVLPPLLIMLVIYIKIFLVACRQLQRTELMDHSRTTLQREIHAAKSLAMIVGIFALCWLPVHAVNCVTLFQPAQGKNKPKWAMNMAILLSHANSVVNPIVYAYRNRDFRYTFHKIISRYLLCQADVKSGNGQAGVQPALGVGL
Quick reference: NanoBRET Fold Response of the listed items.
result type: NanoBRET Fold Response

>>> result("COc1ccccc1N1CCN(CCCCN2C(=O)c3ccc(CNC(=O)CCOCCNC(=O)c4ccc(CNC(=O)CCc5ccc6n5[B-](F)(F)[N+]5=C(c7ccc[nH]7)C=CC5=C6)cc4)cc3C2=O)CC1")
1.30
>>> result("Cc1nc2n(c(=O)c1CCN1CCC(c3noc4cc(F)ccc34)CC1)CCCC2OC(=O)NCCOCCOCCOCCOCCNC(=O)CCc1ccc2n1[B-](F)(F)[N+]1=C(c3ccc[nH]3)C=CC1=C2 (centres unmarked)")
1.05
>>> result("N#CN=C(NCCCOc1cccc(CN2CCCCC2)c1)NCCNC(=O)CCOCCOCCOCCOCCNC(=O)CCc1ccc2n1[B-](F)(F)[N+]1=C(c3ccc[nH]3)C=CC1=C2")
1.06
>>> result("COc1ccccc1N1CCN(CCCCN2C(=O)c3ccc(CNC(=O)CCOCCOCCOCCOCCNC(=O)CCc4ccc5n4[B-](F)(F)[N+]4=C(c6ccc[nH]6)C=CC4=C5)cc3C2=O)CC1")
0.64
>>> result("Cc1cc2c(s1)Nc1ccccc1N=C2N1CCN(CCCNC(=O)CCOCCOCCOCCOCCNC(=O)CCc2ccc3n2[B-](F)(F)[N+]2=C(c4ccc[nH]4)C=CC2=C3)CC1")
1.04

###

target: CXCR6 (Homo sapiens, UniProt O00574); construct: purchased Promega (in-house HiBiT-GPCR construct library, NanoBRET); assay: NanoBRET screen HiBiT-CXCR6 in HEK293; assay type: binding; details: CXCR6; tracer 0.1μM
Sequence (O00574 whole entry): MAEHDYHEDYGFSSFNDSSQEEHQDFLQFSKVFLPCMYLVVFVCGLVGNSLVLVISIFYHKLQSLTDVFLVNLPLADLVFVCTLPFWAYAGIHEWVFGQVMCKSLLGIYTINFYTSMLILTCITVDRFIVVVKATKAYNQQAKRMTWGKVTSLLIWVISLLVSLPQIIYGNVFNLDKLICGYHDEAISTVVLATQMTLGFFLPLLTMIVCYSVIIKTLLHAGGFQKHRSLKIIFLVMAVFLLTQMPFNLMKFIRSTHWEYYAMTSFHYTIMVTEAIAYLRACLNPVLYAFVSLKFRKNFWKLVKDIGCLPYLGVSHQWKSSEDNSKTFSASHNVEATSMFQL
Here, each record is paired with measured NanoBRET Fold Response data.
result type: NanoBRET Fold Response

>>> result("CC(C)N(CC[C@H](c1ccccc1)c1cc(CCNC(=O)CCOCCOCCOCCOCCNC(=O)CCc2ccc3n2[B-](F)(F)[N+]2=C(c4ccc[nH]4)C=CC2=C3)ccc1O)C(C)C")
0.89
>>> result("Cc1cc2c(s1)Nc1ccccc1N=C2N1CCN(CCCNC(=O)CCOCCOCCOCCOCCNC(=O)CCc2ccc3n2[B-](F)(F)[N+]2=C(c4ccc[nH]4)C=CC2=C3)CC1")
1.00
>>> result("O=C(CCOCCOCCOCCOCCNC(=O)CCc1ccc2n1[B-](F)(F)[N+]1=C(c3ccc[nH]3)C=CC1=C2)NCCCN1CCN(C2=Nc3ccccc3Oc3ccc(Cl)cc32)CC1")
1.00
>>> result("O=C(CCc1ccc2n1[B-](F)(F)[N+]1=C(c3ccc[nH]3)C=CC1=C2)NCc1ccc(C(=O)NCCOCCC(=O)N[C@@H]2CC[C@@]3(O)[C@H]4Cc5ccc(O)c6c5[C@@]3(CCN4CC3CC3)[C@H]2O6)cc1 [Naltrexone-3-NB590]")
1.02
>>> result("N#CN=C(NCCCOc1cccc(CN2CCCCC2)c1)NCCNC(=O)CCOCCOCCOCCOCCNC(=O)CCc1ccc2n1[B-](F)(F)[N+]1=C(c3ccc[nH]3)C=CC1=C2")
1.06
